// provenance: patent US20170081400A1

Reported Fold improvement over 320-179, TL1A induced caspase potency assay in TF-1 cells values for the following binders.
- assay-target: T1, human TL1A extracellular domain with N-terminal HIS and FLAG tag (human, UniProt O95150 72-251)
- T1 sequence: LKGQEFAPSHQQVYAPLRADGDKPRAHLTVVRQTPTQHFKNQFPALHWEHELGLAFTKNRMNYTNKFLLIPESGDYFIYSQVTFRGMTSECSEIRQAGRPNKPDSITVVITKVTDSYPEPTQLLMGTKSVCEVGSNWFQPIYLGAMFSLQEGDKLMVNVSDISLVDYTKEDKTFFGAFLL
- assay-method-text: cell-based or functional assay

binder	meas-value
320-586 (antibody, human IgG1, name in Kabat numbering, V domains shown, full-length human IgG1, lambda) VH: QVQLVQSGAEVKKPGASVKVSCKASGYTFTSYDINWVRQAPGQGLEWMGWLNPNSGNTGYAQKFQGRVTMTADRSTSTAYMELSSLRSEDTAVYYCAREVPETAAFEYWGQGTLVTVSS VL: QSVLTQPPSVSGAPGQRVTISCTSSSSDIGAGLGVLWYQQLPGTAPKLLIEGYYNRPSGVPDRFSGSKSGTSASLTITGLLPEDEGDYYCQSWDGTLSALFGGGTKLTVLG	25 fold

Kindly consider the entry below.
Consider the binder shown here: 320-587 (antibody, name in Kabat numbering, V domains shown, full-length human IgG1, lambda) VH: QVQLVQSGAEVKKPGASVKVSCKASGYTFTSYDINWVRQAPGQGLEWMGWLNPNSGYTGYAQKFQGRVTMTADRSTSTAYMELSSLRSEDTAVYYCAREVPETAAFEYWGQGTLVTVSS VL: QSVLTQPPSVSGAPGQRVTISCTSSSSDIGAGLGVHWYQQLPGTAPKLLIEGYYNRPSGVPDRFSGSKSGTSASLTITGLLPEDEGDYYCQSWDGTLSALFGGGTKLTVLG What is its recorded Fold improvement over 320-179, TL1A induced caspase potency assay in TF-1 cells?
40 fold
